- Test system: Persicaria nodosa
- Measurement description: Pre-emergence herbicidal activity against Persicaria nodosa assessed as growth inhibition at 25 g a.i/10 a
- Type: functional, organism-based
Calls of active or inactive are those of the source. The rule behind the calls is not given here.
Would you mind answering with one of these outcomes? TRUE = active, FALSE = inactive

Reference set, count: 9
COc1cc(OC)nc(Oc2cccc(-c3ccccc3)c2C(=O)O)n1 :: TRUE
COc1cc(OC)nc(Oc2cccc(-n3cccc3)c2C(=O)O)n1 :: TRUE
CCc1cccc(Oc2nc(OC)cc(OC)n2)c1C(=O)O :: TRUE
COc1cc(OC)nc(Oc2ccc(Br)cc2C(=O)O)n1 :: FALSE
COc1ccc(Oc2nc(OC)cc(OC)n2)c(C(=O)O)c1 :: TRUE
CCOCCOc1cccc(Oc2nc(OC)cc(OC)n2)c1C(=O)O :: TRUE
COc1cc(OC)nc(Oc2cccc(OC(F)F)c2C(=O)O)n1 :: TRUE
COc1cc(OC)nc(Sc2cccc(Cl)c2C(=O)O)n1 :: TRUE
COc1cc(OC)nc(Oc2c(C)cccc2C(=O)O)n1 :: FALSE

// switching to the query molecule
State the result this test recorded for COc1cc(OC)nc(Oc2cccc(SC)c2C(=O)O)n1 .
TRUE
